- target_desc: purified HLA DRB1 *0404 (Homo sapiens, UniProt P01903+P01911, A100R/A169T/F76Y/I96L/K127E/L162R/M171V/N62H/P40V/Q125Y/R42H/S133A/S149N/S66Y/V209L/W38E)
- test_details: IC50nM to purified HLA | DRB1 *0404
pIC50: −log10 of the molar value. Where no end group is shown, it is not given here.
assay_endpoint: pIC50

[
  {
    "seq_text": "AAAKFVAAWTLKAAA [SEQ ID NO: 4]",
    "assay_endpoint": "pIC50",
    "reported_result": 8.54
  },
  {
    "seq_text": "AAAFFVAANTLKADA [SEQ ID NO: 19]",
    "assay_endpoint": "pIC50",
    "reported_result": 8.35
  },
  {
    "seq_text": "AAAHFVAAYTLHAAA [SEQ ID NO: 27]",
    "assay_endpoint": "pIC50",
    "reported_result": 8.24
  },
  {
    "seq_text": "AAAKFVAAWTLHAAA [SEQ ID NO: 6]",
    "assay_endpoint": "pIC50",
    "reported_result": 8.62
  },
  {
    "seq_text": "AAAFFVAAWTLKADA [SEQ ID NO: 16]",
    "assay_endpoint": "pIC50",
    "reported_result": 8.57
  },
  {
    "seq_text": "AAAWFVAAWTLKAAA [SEQ ID NO: 5]",
    "assay_endpoint": "pIC50",
    "reported_result": 8.42
  }
]

src = patent US9789181B2
